PROCEDURE_SUMMARY: yeast display, Sf9 membrane polyspecificity reagent, FACS + sequencing; frameworks hold sequencing errors
OBSERVATION_TYPE: polyreactivity (PSR sort gate)

Here is how some sequences turned out for polyreactivity (PSR sort gate).
QVQLVESGGGLVQAGGSLRLRCAASGRNFGDNRMGWYRQAPGKERELVTYAYSVKGRFTISRDNAKNTVYLQMNSLKPEDTSVYYCNTDPQRFSGLDENYWGQGTQVTVSS	low polyreactivity
QVQLVESGGGLVQAGGSLRLSCAASGSISETNAMGWYRQAPGKERELVAAISGSGGSTYADSVKGRFTISRDNAKNTVYLQMNSLKPEDTAVYYCARDRYYTREWYWYRHDHWGQGTQVTVSS	low polyreactivity
QVQIVESGGGLVQAGGSLRLSCAASGSTFGGNAMGWYRQAPGKERDLVAVISKRGGSKYYADSVKGRFTISRDNAKNTVYLQMNSLKPEDTAVYYCAATYSRYWSPTYDYWGQGTQVNVSS	high polyreactivity
QFQLVESGGGLVQAGGSLRLSCAASGRTFTYNAMGWYRQAPGKERELVAAINSGGSTNYADSVKGRFTISRDNAKNTVYLQMNSLKPEDTAVYYCNAGFGFGSSRYGTRYYYWGQGTQVTVSS	low polyreactivity
QVQLVESGGGLVQAGGSLRLSCAASGRIFAPYAMGWYRQAPGKERELVAAIRISGDSTYYADSVKGRFTISRDNAKNTVYLQMNSLKPEDTAVYYCAAEYYILHWFGYAGYPAYNYWGQGTQVTVSS	high polyreactivity

Q: Need polyreactivity (PSR sort gate) of QVQLVESGGGLVQAGGSLRLSCAASGRIVTSNAMGWYRQAPGKERELVAVISRRGGSTYYADYVKGRFTITRDNAKNTVYLQMNSVKPEDTAVYYCARRPYSYTRYEYWGQGTQVTVSS , thanks.
Result: low polyreactivity

Q: Similarly, QVQLVESGGGLVQAGGSLRLSCAASGSIFYYYAMGWYRQAPGKERELVAAISYGGTRTYYADSVKGRFTISRDNAKNTVYLQMNSLKPEDTAVYYCAASQYSFKGRDYDYWGQGTQVTVSS ?
Result: low polyreactivity

Q: Same question, QVQLVESGGGLVQAGGSLRLSCAASGFTFYVYAMGWYRQAPGKERELVAAISRSGGSTYYADSVKGRFTISRDNAKNTVYLQMNSLKPEDTAVYYFAVVQRYWSPGIVPYVYWGQGTQVTVSS this time
Result: high polyreactivity

Q: How about this sequence: QVQLVESGGGLVQAGGSLRLSCAASGSTFWGNAMGWYRQAPGKERELVAAIDWSGGRTYYADSVKGRFTISRDNAKNTVYLQMNSLKPEDTAVYYCATRAWRGYVPYDYWGQGTQVTVSS
Result: high polyreactivity

Q: Also QVQLVESGGGLDQAGGSLRLSCAASGSTFQPYAMGRYRQAPGKEREFVATISGSAGSTYYADSVKGRFKISRDNANYTVYLQMNSLKPEDTAVYYCNADSGWFGYDYWGQGNQVTVSS , if possible.
Result: low polyreactivity

Q: // same read-out, input: QVQLVESGGGLVQAGGSLRLSCAASGSIFRIYAMGWYRQAPGKERELVAAISRGSTRTYYADSVKGRFTISRDNAKNTVYLQMNSLKPEDTAVYYCAKRGISPYGYWGQGTQVTVSS
Result: high polyreactivity

---

PROCEDURE_SUMMARY: yeast display, Sf9 membrane polyspecificity reagent, FACS + sequencing; frameworks hold sequencing errors
OBSERVATION_TYPE: polyreactivity (PSR sort gate)

QVQLVESRGGLVHAGGSLGLSCAASGSTFGVNAMGWYRQAPGKERELVASISSGGGTYYADSVKGRFTISRDNSKNTVYLQMNSLKPEDTAVYYCAAVYYWYDSYAGYDYWGQGTQVTVSS	low polyreactivity
QVQLVESGGGLVQAGGSLRLICAASGSTFQDNAMGWYRQAPGKERELVASISSVDSTNYADSVKGRFTISRDNAQNTVYLQMNSLKPEDTAVYYCNAAHPYRRVGSFTYKYDYWGQGTQVTVSS	low polyreactivity

---

PROCEDURE_SUMMARY: yeast display, Sf9 membrane polyspecificity reagent, FACS + sequencing; frameworks hold sequencing errors
OBSERVATION_TYPE: polyreactivity (PSR sort gate)

The following sequences have reported results that may help.
QVQLVESGGGLVQAGGSLRLSCAASGRIFRRNAMGWYRQAPGKEREFVATITSGGSTFYADSVKGRFTISRDNAKNTVYLQMNSLIPEDTAVYYCAAPYYNTPFHTPNYSWGQGTQVTVSS	low polyreactivity
QVQLVESGGGLVQAGGSLRLSCAASGSIFATYAMGWYIQAPGKERELVASITTDGSTHYADSVKGRFTISRDNAKNTVYLQMNSLKPEDTAVYYCNTETGPSPVPVYDTEFDSWGQGTQVTVSS	low polyreactivity
QVQLVESGGGLVQAGGSLRLSCAASGRIFAYYAKGWYRQAPGKERELVAAISRSGVSTYYADSVKGRFTISRDNAKNTVYLQMNSLKPEDTAVYYCAARWRSGFTSGDYWGQGTQVTVSS	low polyreactivity
QVQLVESGGGLVQAGGSLRLSCAASGFTFAQYTMGWYRQAPGKERELVAAIRVGGGSTYYADSVKGRFTISRDNAKNTVYLQMNSLKPEDTAVYYCAKRTYSRKFRGAYNYWGQGTQVTVSS	high polyreactivity
QVQLVESGGGLVQAGGSLRLSCAASGFIFALYARGWYRQAPGTERELVAAITSSSSTYAASVKGRFTISRDNAKNTVYLQMNSLKPEDTAVYYCAADTYSYRYSNDYWGQGTQVTVSS	low polyreactivity
QVQLVESGGGIVQAGGSLRLSCAASGFTYARYAKGWYRQAPGKERELVAAITRRGGSTHYADSVKGRFTISRDNAKNTVYLQMTSLKPEDTAVDYCAAYSLHNYLSEYGDWGQGTQVTVSS	high polyreactivity
QVQLVESGGGLVQAGGSLRLSCAASGRIFYGYAMGWYRQAPGKERELVAAITVSGGDTYYADSVKGRFTISRDNAKNTVYLQMNSLKPEDTAVYYCAAKADKRLDYWGQGTQVTVSS	low polyreactivity
QVQLVESGGGLVQAGGSLRLSCAASGRTFNHYAMGLYRQAPGKERELVAGITISGGSTYYADSVKGRFTISRDNAKNTVYLQMNSLKPEDTAVYYCNAVYEYYRHSKWTMDYWGQGTQVTVSS	low polyreactivity
QVQLVESGGGLVQARGSLRLSCAASGSIFSIYAMGWYRPAPGTERELVASITRSSGRTYYADSVKGRFTISRDNAKNTVYLQMISLKPEDTAVYYCAKDYIPLALDADDYWGQGTQVTVSS	low polyreactivity
QVQLVESGGGLVQAGGSLRLSCAASGRTFVYNAMGWYRQAPGKERELVAAIDGGGDRTYYADSVKGRFTISRDNAKNTVYLQMNSLKQEDTAVYFCARDPGDTYYYSYPEGDYWGQGTQVTVSS	low polyreactivity

Now for the sequence whose polyreactivity (PSR sort gate) we want.
Q: Entry QVQLVESGGGLVQAGGSLRLSCAASGFTFHKNAMGWYRQAPGKERELVAGISRRAGSTYYADSVKGRFTISRDNAKNTVYLQMNSLKPEDTAVYYCATDRARTGALYYWGQGTQVTVSS : reported polyreactivity (PSR sort gate) = ?
Result: high polyreactivity

---

PROCEDURE_SUMMARY: yeast display, Sf9 membrane polyspecificity reagent, FACS + sequencing; frameworks hold sequencing errors
OBSERVATION_TYPE: polyreactivity (PSR sort gate)

Check out these entries, answers already filled in.
QVQLVESGGRLVQAGGRLRLSCAASGRIFRYYTLGWYRQAPGKERELVAAITRRGGITNYADSVKGRFTISRDNAKNTVYLQMNSLKPEDTAVYYCAAKYVSQGYDYWGQGTQVTVSS	high polyreactivity
QVQLVESGAGLVQAGGSLRLSCAASGRTFDSNAMGWYRQAPGKEREFFASIRWTVTSTYYADSVKGRFTISRDNAKNTVYLQMNSLKPEDTAVYYCNAEDYYYVGRSDYWGQGTQVTVSS	low polyreactivity
QVQLVESGGGLLQAGGSLRLSCAASGRTFVYYAMGWYRPAPGKERELVAAITSSGSRTYYADSVKGRFTISRDNAKNTVYLQMNSLKPEDTAVYYCAADYVAHGDYRVLYDYWGQGTQVTVSS	low polyreactivity
QVQLVESGGGLVQAGGSLRLSCAASGSIFSYYAMGWYRQAPGKERELVAAINWSGGRTYYADSVKGRFTISRDNAKNTVYLQMNSLKPEDTAVYYCNAVSNFWFIVFYGNQPKTDDYWGQGTQVTVSS	high polyreactivity
QVQLVESGGGLVQAGGSLRLSCAASGRTFWIYAMGWYRQAPGKERELVAAITGSGGSTYYADSVKGRFTISRDNAKNTVYLQMNSLKPEDTAVYYCNARVPDSYKWSAYYSHDYWGQGTQVTVSS	low polyreactivity

Q: # query: polyreactivity (PSR sort gate) of entry QVQLVESGGGLVQAGGSLRLSCAASGFIFRYNTMGWYRQAPGIVRELVAAISVSGARTYYADSVKGRFTISRDNAKKTVYLQMNSLKPEDTAVYYCNRRYPFYSRYNNDYWGLGTQVTVSS
Result: high polyreactivity

Q: Also check QVQLVESGGGLVQAGGSLRLSCAASGFIDVSYAMGWYRQAPGKERELVAAIDRIGGITYYADSVKGRFTISRDNAKNTVYLQMNSLKPEDTAVYYCAAAARYATVRVGREYYWGQGTQVTVSS
Result: low polyreactivity

Q: Next: QDQLVESGGGLVQAGGSLRLSCAATGFTFYSYAMGWYRQAPGKERELVAGISRSGGSTYYADSVKGRFTISRDNGKNTVYLQMKSLKPVDTAVYYCNVGLRKKIQNSKYDYWGQGTQVTVSS
Result: high polyreactivity

Q: Same again, this time with QVQLVESGGGLVQAGGSLRLSCAASGLTFVQNAMGWYRQAPGKERELVAAISSRGGSTYYADSVKGRFTISRDNAKNTVYLQMNSLKPEDTAVYYCNTRSITKYDYWRRGYGYWGQGTQVTVSS
Result: high polyreactivity

Q: Try this sequence next: QVQLVESGGGLVQAGGSLRLSCAASGITIFTYAMGWYRQAPGKERELVAAISGSGGSTYYADSVKGRFTISRDNAKNTVYLQMNSLKPEDTAVYSCAAEYTYGSPYDYWGQGTQVTVSS
Result: low polyreactivity

Q: One more sequence: QVQLVESGGGLVQAGGSLRLSCAASGFTFYFYAMGWYRQAPGKERELVAAISRGGSTTYADSVKGRFTISRDNAKNTVYLQMNSLKPEDTAVYYCAVGYDIVRYSYSPFYRYDYWGQGTQVTVSS
Result: low polyreactivity

Each recorded value in this set is attributed to the nanobody polyreactivity screen of Harvey et al. (2022).
